Tested on: MIA-induced osteoarthritic pain in rats
Test: Osteoarthritic (OA) pain induced by sodium monoiodoacetate (MIA), hind limb grip force
Type: in vivo
Conditions: rat MIA-OA, OA dose 30 mg/kg, 20 days after MIA
measure: OA MPE (%)
Respond numerically; units are % and should not be typed.

Past entries and their recorded results:
compound | target-entity | OA MPE, %
CC(C)(O)CC(=O)N1C[C@H]2CN(c3cccc4c3cnn4-c3ccccc3F)C(=O)[C@H]2C1 | MIA-induced osteoarthritic pain in rats | 99
CC(C)(O)CC(=O)N1CC[C@H]2CN(c3cccc4c3cnn4-c3ccccc3F)C(=O)[C@H]21 (single isomer, unassigned) | MIA-induced osteoarthritic pain in rats | 62
CC(C)(O)CC(=O)N1CC[C@@H]2CN(c3cccc4c3cnn4-c3ccccc3F)C(=O)[C@@H]21 (single isomer, unassigned) | MIA-induced osteoarthritic pain in rats | 70

Proceeding to the next compound to report its OA MPE.
What measured OA MPE is associated with `C[C@H](O)CC(=O)N1C[C@H]2CN(c3cccc4c3cnn4-c3ccccc3F)C(=O)[C@H]2C1` on MIA-induced osteoarthritic pain in rats?
85

---

Biological target: recombinant human Nav1.7 (Homo sapiens, UniProt Q15858)
Sequence (Q15858 whole entry): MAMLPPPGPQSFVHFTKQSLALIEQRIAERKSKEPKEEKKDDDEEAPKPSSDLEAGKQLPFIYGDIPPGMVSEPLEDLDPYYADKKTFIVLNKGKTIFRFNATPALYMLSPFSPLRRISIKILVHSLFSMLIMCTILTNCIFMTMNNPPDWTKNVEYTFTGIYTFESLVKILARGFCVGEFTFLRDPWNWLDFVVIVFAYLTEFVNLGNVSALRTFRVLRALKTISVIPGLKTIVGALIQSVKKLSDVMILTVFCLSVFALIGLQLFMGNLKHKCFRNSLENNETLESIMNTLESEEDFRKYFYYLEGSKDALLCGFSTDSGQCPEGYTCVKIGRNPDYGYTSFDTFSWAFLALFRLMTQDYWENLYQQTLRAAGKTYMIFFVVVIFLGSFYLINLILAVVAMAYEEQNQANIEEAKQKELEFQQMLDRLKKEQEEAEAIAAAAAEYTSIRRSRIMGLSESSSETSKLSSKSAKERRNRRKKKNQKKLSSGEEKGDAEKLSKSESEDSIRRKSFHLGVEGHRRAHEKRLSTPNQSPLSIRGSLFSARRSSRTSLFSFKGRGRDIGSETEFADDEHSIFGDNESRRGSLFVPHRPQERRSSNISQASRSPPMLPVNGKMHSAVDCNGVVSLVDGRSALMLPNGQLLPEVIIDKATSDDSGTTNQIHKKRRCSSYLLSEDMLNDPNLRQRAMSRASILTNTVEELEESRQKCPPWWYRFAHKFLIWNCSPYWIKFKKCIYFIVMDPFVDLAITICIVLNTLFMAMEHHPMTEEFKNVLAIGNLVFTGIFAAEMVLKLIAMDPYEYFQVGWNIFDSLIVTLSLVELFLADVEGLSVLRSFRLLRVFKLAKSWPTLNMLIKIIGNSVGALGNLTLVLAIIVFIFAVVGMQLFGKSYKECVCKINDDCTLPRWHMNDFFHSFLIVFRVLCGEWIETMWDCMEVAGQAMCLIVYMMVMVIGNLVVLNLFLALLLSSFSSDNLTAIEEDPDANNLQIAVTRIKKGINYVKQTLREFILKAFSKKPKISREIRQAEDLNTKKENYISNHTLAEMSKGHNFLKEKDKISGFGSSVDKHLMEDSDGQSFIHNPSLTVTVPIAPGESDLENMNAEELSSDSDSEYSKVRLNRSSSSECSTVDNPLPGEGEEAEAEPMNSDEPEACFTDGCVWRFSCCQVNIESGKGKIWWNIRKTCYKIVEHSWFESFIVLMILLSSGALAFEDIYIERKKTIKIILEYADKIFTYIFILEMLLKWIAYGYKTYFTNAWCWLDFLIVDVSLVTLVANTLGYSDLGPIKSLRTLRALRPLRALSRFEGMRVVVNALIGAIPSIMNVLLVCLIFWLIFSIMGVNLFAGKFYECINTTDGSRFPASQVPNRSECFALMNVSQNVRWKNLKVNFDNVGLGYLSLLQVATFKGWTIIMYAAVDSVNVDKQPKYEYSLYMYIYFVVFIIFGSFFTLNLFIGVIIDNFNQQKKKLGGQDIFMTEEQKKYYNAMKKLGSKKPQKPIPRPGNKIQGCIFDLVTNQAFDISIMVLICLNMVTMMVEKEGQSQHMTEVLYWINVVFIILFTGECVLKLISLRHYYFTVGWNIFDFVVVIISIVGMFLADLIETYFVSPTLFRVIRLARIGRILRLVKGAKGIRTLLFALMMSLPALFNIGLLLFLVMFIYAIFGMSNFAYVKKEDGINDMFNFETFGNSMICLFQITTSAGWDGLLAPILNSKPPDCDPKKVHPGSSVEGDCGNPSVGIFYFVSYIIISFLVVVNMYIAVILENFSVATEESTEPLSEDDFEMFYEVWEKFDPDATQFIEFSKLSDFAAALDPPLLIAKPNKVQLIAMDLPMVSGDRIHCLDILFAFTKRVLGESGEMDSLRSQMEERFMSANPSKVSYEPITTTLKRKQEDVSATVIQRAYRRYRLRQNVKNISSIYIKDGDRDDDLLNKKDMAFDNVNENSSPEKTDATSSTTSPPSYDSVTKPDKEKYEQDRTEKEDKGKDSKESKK
Assay: FRET-based membrane potential assay, Nav1.7
Conditions: HEK293 cells expressing recombinant human Nav1.7; veratridine + scorpion venom depolarization
measure: pIC50
Note: pIC50 values are expressed as the negative base-10 logarithm of concentration in M.

compound | pIC50
CC(C)C(=O)N1C[C@@H]2CN(c3cccc4c3cnn4-c3ccccc3F)C(=O)[C@@H]2C1 | 5.35
CC(C)(O)C(=O)N1C[C@H]2CN(c3cccc4c3cnn4-c3ccccc3F)C(=O)[C@H]2C1 | 4.88
O=C(CC1CCCO1)N1C[C@@H]2CN(c3cccc4c3cnn4-c3ccccc3F)C(=O)[C@H]2C1 (relative stereo) | 5.68

Give its pIC50 value. Item: `O=C1[C@H]2CN(C(=O)C3(O)CC3)C[C@H]2CN1c1cccc2c1cnn2-c1ccccc1F`
5.05

Give its pIC50 value. Item: `O=C(c1coc(CN2CCCC2)n1)N1C[C@@H]2CN(c3cccc4c3cnn4-c3ccccc3F)C(=O)[C@@H]2C1`
6.33

Give its pIC50 value. Item: `CCS(=O)(=O)N1C[C@@H]2CN(c3cccc4c3cnn4-c3ccccc3F)C(=O)[C@@H]2C1`
5.53

Give its pIC50 value. Item: `O=C1[C@@H]2CN(S(=O)(=O)c3cccnc3)C[C@@H]2CN1c1cccc2c1cnn2-c1ccccc1F`
5.44

Give its pIC50 value. Item: O=C(Cc1coc2ccccc12)N1CC2CN(c3cccc4c3cnn4-c3ccccc3F)C(=O)C2C1 (stereo not shown)
5.89

Give its pIC50 value. Item: O=C(C1CCOC1)N1C[C@@H]2CN(c3cccc4c3cnn4-c3ccccc3F)C(=O)[C@@H]2C1 (stereo partly shown)
5.77

Give its pIC50 value. Item: `O=C1[C@@H]2CN(S(=O)(=O)c3ccccc3)C[C@@H]2CN1c1cccc2c1cnn2-c1ccccc1F`
5.54

---

Target: recombinant human Nav1.8 (Homo sapiens, UniProt Q9Y5Y9)
Sequence (Q9Y5Y9 whole entry): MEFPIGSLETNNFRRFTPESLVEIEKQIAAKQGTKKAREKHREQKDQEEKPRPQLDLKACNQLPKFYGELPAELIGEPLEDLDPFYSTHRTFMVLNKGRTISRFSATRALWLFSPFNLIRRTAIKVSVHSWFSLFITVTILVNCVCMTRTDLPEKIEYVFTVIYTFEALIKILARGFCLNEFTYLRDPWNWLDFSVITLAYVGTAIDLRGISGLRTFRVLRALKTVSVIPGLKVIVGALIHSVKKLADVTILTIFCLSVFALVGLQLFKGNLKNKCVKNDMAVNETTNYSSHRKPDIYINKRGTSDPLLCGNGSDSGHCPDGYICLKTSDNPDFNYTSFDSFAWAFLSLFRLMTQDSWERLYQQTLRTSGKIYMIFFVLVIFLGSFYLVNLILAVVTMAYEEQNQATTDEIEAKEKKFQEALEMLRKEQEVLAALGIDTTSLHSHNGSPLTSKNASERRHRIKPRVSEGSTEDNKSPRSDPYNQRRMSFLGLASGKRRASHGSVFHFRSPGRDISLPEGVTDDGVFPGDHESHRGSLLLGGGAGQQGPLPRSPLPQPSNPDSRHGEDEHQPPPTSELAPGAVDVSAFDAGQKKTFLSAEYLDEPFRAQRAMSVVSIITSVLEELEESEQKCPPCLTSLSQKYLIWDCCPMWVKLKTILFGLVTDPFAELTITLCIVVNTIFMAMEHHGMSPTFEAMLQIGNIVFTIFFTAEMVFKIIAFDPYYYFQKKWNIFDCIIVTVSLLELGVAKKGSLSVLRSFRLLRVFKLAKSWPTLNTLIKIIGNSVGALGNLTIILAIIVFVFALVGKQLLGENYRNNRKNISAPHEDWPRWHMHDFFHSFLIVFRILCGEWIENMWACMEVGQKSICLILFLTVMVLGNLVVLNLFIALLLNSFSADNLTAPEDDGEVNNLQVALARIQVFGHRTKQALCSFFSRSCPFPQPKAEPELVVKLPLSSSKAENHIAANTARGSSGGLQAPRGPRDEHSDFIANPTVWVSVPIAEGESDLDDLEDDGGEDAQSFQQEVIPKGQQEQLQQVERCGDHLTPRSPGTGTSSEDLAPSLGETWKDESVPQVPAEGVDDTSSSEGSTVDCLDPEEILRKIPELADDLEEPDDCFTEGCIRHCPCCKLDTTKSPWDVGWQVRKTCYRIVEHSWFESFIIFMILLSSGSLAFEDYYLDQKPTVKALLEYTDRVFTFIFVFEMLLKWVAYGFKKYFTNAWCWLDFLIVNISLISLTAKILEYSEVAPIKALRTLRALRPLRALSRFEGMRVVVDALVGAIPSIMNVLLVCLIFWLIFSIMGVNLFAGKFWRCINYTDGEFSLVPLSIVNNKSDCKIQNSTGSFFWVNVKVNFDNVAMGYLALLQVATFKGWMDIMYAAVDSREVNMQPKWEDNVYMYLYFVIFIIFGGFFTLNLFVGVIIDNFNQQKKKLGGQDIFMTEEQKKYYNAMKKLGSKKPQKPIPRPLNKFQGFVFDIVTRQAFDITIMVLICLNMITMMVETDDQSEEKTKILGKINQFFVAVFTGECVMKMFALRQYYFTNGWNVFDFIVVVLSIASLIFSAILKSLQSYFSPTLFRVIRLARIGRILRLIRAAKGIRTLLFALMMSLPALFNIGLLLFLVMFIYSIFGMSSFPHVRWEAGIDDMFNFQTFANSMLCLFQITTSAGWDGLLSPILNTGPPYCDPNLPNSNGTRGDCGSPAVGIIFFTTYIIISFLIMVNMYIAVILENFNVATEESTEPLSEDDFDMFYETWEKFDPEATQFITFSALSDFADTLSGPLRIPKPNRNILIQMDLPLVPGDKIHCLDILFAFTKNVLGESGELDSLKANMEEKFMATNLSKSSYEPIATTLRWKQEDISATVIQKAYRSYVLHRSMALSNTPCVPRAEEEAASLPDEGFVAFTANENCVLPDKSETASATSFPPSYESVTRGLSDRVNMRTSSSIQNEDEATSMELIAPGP
Experiment: FRET-based membrane potential assay, Nav1.8
Conditions: HEK293 cells expressing recombinant human Nav1.8; veratridine + scorpion venom depolarization
Documented pIC50 across a set of compounds
Note: pIC50 values are expressed as the negative base-10 logarithm of concentration in M.

Past entries and their recorded results:
compound | target-entity | quantitative-result
CC(C)(O)CC(=O)N1CC[C@@H]2CN(c3cccc4c3cnn4-c3ccccc3F)C(=O)[C@@H]21 (single isomer, unassigned) [Example 1] | recombinant human Nav1.8 (Homo sapiens, UniProt Q9Y5Y9) | 5.55
CC(C)S(=O)(=O)N1C[C@@H]2CN(c3cccc4c3cnn4-c3ccccc3F)C(=O)[C@@H]2C1 [Example 24] | recombinant human Nav1.8 (Homo sapiens, UniProt Q9Y5Y9) | 6.23
CC(C)(O)C(=O)N1CC[C@H]2CN(c3cccc4c3cnn4-c3ccccc3F)C(=O)[C@H]21 [Example 49] | recombinant human Nav1.8 (Homo sapiens, UniProt Q9Y5Y9) | 5.39
C[C@H](O)CC(=O)N1C[C@H]2CN(c3cccc4c3cnn4-c3ccccc3F)C(=O)[C@H]2C1 [Example 34] | recombinant human Nav1.8 (Homo sapiens, UniProt Q9Y5Y9) | 5.08
CC(=O)N1CC[C@@H]2CN(c3cccc4c3cnn4-c3ccccc3F)C(=O)[C@@H]21 (relative stereo) [Example 6] | recombinant human Nav1.8 (Homo sapiens, UniProt Q9Y5Y9) | 4.83

Give its pIC50 value. Item: C[C@@H](O)CC(=O)N1CC[C@@H]2CN(c3cccc4c3cnn4-c3ccccc3F)C(=O)[C@@H]21 (mixture of isomers) [Example 7]
5.51
